- system: T1, recombinant human aggregated full-length TDP-43 (human, UniProt Q13148 1-414)
- T1 construct: also called aggregated TDP-43; aggregated FL TDP-43
- T1 sequence (Q13148 whole entry): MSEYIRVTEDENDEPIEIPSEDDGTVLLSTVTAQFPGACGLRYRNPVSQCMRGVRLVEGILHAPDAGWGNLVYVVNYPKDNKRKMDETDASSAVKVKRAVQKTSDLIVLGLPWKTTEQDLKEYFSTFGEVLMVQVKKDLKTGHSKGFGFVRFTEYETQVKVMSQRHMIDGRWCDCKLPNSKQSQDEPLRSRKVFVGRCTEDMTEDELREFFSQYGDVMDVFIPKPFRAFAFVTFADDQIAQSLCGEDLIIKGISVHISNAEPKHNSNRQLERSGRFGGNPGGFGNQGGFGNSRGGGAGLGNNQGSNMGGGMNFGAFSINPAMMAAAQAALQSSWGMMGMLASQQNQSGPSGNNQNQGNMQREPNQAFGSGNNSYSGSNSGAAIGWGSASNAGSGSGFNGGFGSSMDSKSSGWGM
- procedure summary: SPR, immobilized aggregated TDP-43
- Experimental: Binding avidity to soluble or aggregated FL TDP-43 was evaluated by determing the dissociation constants (KD) using surface plasmon resonance (SPR; Biacore T200, GE Healthcare Life Sciences). Recombinant human soluble or aggregated FL TDP-43 were immobilized on a CM5 Series S sensor chip (GE Healthcare Life Sciences) by amine coupling. […] Results obtained from binding kinetics were double-referenced using a blank flow cell and a buffer cycle and were evaluated with a global 1:1 fitting model with RI. […]
Record label 1 whenever koff is at 0.0002 s⁻¹ or higher; record label 0 when lower.

# count of solved cases: 4
binder="ACI-7071-809F12-Ab1 (antibody, mouse IgG2b, V domains shown, Mouse IgG2b, kappa, from hybridoma; also called 809F12D8) VH: QVQLKESGPGLVAPSQSLSITCTVSGFSLNRNGVQWVRQPPGKGLEWLGVIWPGGSTNCNSALMSRLSISKDNSKSQVFLKMNSLHTDDTGIYYCARVGGNYVWDYNNYAWGQGTLVTVSA VL: DVLMTQTPLSLPVSLGDQASISCRSSQNIVHSIGNTYLEWYLQKPGQSPKLLIYKVSNRFSGVPDRFSGSGSGTDFTLKISRVEAEDLGVYYCFQGSHVPYTFGGGTKLEIR" class_label="label 0"
binder="ACI-7071-809D9-Ab2 (antibody, mouse IgG2b, V domains shown, Mouse IgG2b, kappa, from hybridoma; also called 809D9C2) VH: QVQLQQSGAELVRPGVSVKISCKGSGYKFTDYSMHWVKQSHTKSLEWIGVISTYYGDTTYNQKFKGKATITVDKSSSTAYMELARLTSEDSAIYYCATYGNFPASFSYWGQGTLVTVSA VL: DIVMTQAAPSIPVTPGESVSISCRSSKSLLHSNGNTYLYWFLQRPGQSPQLLIYRMSNLASGVPDRFSGSGSGTAFTLRISRVEAEDVGVYYCMQHLEYPFTFGSGTKLEIK" class_label="label 1"
binder="ACI-7069-641H1-Ab2 (antibody, mouse IgG2b, V domains shown, Mouse IgG2b, kappa, from hybridoma; also called 641H1E7) VH: QVQLKESGPGLVAPSQSLSITCTVSGFSLTNYGVHWVRQPPGKGLEWLGLMWAGGSTNYNSALMSRLSISKDNSKSQVFLKMNSLQTDDTAMYYCVIYRTGFAYWGQGTLVTVSA VL: DVLMTQTPLSLPVSLGDQASISCRSSQSIVHTIGNTYLEWYLQKPGQSPKLLIYKVSNRFSGVPDRFSGSGSGTDFTLKISRVEAEDLGVYYCFQGSHVPFTFGSGTKLEIK" class_label="label 0"
binder="ACI-7069-634H10-Ab2 (antibody, mouse IgG2b, V domains shown, Mouse IgG2b, kappa, from hybridoma; also called 634H10H7) VH: EVQLQQSGAELVKPGASVRLSCTASGFNIKDTYMHWVKQRPEQGLEWIGRIDPANSNTKFDPKFQGKATITSDTSSNTAYLQLSSLTSEDTAVYYCARFYGGSHWYFDVWGAGTTVTVSS VL: DIKMTQSPSSMYASLGERVTITCKASQDIKSYLSWYQHKPWKSPKALIYYATSLADGVPSRFSGSGSGQDYSLTISSLESDDTATYYCLQQGESPYTFGGGTKLEIK" class_label="label 0"

Now for a further binder.
Is koff at least 0.0002 s⁻¹? Consider 642D12B4 Fab (Fab, V domains shown, Fab fragment; also called Fab fragment of ACI-7069-642D12-Ab1) VH: EVQLQQSGAELVKPGASVRLSCTASGFNIKDPYMHWVRQRPKQGLEWIGRIDPADGNTKYDPKFQGKATLTADTSSNVAYLHLSSLTSEDTAVYYCARFYGSSHWYFDVWGAGTTVTVSS VL: DIKMTQSPSSMYASLGERVTITCKASQDIKRYLSWYQQKPWKSPKILIYYATSLADGVPSRFSGTGSGQDYSLTISSLESDDVATYYCLQQGESPYTFGGGTKLEIK label 1
